// reported IC50 for each item listed
biological target: human p70S6 kinase (p70S6K, kinase domain residues 1-421, T412E mutation) (Homo sapiens, UniProt P23443, T412E); construct: human p70S6 kinase domainresidues 1-421, containing a T412E mutation; assay: p70S6 kinase assay, Luciferase-Coupled Chemiluminescent Kinase assay (LCCA); details: 5 μM ATP, 12 nM p70S6K; read-out: p70S6K inhibition IC50
Sequence (P23443 1-421 T412E): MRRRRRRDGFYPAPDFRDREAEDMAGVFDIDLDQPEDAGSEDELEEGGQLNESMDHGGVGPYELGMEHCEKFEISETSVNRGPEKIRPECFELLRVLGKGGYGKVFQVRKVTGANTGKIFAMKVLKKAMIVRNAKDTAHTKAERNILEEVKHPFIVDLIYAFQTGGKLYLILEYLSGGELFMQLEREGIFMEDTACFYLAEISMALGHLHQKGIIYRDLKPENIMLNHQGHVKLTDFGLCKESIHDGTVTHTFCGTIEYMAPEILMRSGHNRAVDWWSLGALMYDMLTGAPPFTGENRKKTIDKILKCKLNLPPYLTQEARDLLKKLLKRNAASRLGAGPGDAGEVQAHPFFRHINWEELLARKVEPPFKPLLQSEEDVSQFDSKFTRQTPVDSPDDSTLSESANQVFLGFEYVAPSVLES

# count of solved cases: 3
{"columns": ["compound", "IC50"],
 "data": [
  ["O=C(Nc1cccc(C(F)(F)F)c1)N1CCN(c2ncnc3[nH]nc(Br)c23)CC1 [Entry 33]", "< 0.05 µM"],
  ["CCN(CC)CCNC(c1ccc(Cl)cc1)C1CCN(c2ncnc3[nH]nc(Br)c23)CC1 (centres unmarked) [Entry 6]", "< 0.05 µM"],
  ["O=C(NCCCN1CCOCC1)c1ccc(CN2CCN(c3ncnc4[nH]nc(Br)c34)CC2)cc1 [Entry 81]", "> 2 µM"]
]}

-- ask Can you share its IC50? I mean this compound: Clc1ccccc1CN1CCN(c2ncnc3[nH]nc(Br)c23)CC1 [Entry 46]
-- reply < 0.05 µM

-- ask Which IC50 is listed for CCN(CC)CCN(c1ccc(Cl)cc1)C1CCN(c2ncnc3[nH]nc(Br)c23)CC1 [Entry 18] ?
-- reply < 0.05 µM
